- ASSAY_COMMENT: Oral PK profile in mice, plasma drug concentrations
- Type: in vivo, BALB/c mice
- CONDITION_CONTEXT: male, BALB/c, mouse, plasma, oral, 3 mg/kg, 3 mg/kg oral gavage, 120 min post-dose, individual mice #1-#3
PARAMETER_MEASURED: concentration at 120 min

• CC1([C@H](N)C(=O)N2CCC[C@H]2B(O)O)CCCCC1 (relative stereo) [ARI-4175CH] = 70 nM
• N[C@H](C(=O)N1CCC[C@H]1B(O)O)C12CC3CC(CC(C3)C1)C2 (relative stereo) = 30 nM

###

- STUDY_TARGET: recombinant human dipeptidyl peptidase IV (DPPIV) (Homo sapiens (Human), UniProt P27487)
- Sequence (P27487 whole entry): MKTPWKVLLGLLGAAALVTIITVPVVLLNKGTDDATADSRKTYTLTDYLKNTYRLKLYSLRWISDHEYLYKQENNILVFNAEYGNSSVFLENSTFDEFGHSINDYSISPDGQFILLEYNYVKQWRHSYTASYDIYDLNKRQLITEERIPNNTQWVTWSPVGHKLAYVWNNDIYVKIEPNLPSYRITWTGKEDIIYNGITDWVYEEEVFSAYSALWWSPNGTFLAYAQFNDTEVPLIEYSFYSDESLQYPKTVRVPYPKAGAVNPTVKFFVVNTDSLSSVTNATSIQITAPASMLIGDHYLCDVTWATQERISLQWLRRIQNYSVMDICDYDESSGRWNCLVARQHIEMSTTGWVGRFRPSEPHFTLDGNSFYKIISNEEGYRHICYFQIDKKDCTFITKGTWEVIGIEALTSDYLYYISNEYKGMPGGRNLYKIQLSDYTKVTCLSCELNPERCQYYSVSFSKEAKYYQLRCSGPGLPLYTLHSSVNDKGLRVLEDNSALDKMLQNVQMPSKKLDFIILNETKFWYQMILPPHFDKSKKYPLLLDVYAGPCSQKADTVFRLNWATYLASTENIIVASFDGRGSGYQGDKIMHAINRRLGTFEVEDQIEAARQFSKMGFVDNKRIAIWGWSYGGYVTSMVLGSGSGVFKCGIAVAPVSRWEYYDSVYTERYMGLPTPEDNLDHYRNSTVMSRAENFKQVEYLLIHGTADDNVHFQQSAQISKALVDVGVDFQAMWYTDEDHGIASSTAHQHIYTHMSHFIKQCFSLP
- ASSAY_COMMENT: In vitro inhibition assay, dipeptidyl peptidase IV
pIC50: −log10 of the molar value.
Think of 9 as a floor: if pIC50 stands on it or above, it is criterion met; beneath it, criterion not met.

- CC1(C)CN[C@@H]1C(=O)N1CCC[C@H]1B(O)O (relative stereo): criterion met
- CC1([C@H](N)C(=O)N2CCC[C@H]2B(O)O)CCCCC1 (relative stereo) [ARI-4175CH]: criterion not met
- N[C@H](C(=O)N1CCC[C@H]1B(O)O)C12CC3CC(CC(Cl)(C3)C1)C2 (relative stereo) [ARI-3102C]: criterion not met
- CC(C)(F)[C@H](N)C(=O)N1CCC[C@H]1B(O)O (relative stereo): criterion not met
- CC1(C)CCCN[C@@H]1C(=O)N1CCC[C@H]1B(O)O (relative stereo): criterion not met
- CC1([C@H](N)C(=O)N2CCC[C@H]2B(O)O)CCCC1 (relative stereo) [4175CP]: criterion not met

###

- ASSAY_COMMENT: Oral PK profile in mice, plasma drug concentrations
- Format: in vivo, BALB/c mice
- CONDITION_CONTEXT: male, BALB/c, mouse, plasma, oral, 3 mg/kg, 3 mg/kg oral gavage, 10 min post-dose, individual mice #1-#3
PARAMETER_MEASURED: concentration at 10 min (nM)

• N[C@H](C(=O)N1CCC[C@H]1B(O)O)C12CC3CC(CC(C3)C1)C2 (relative stereo) [ARI-5544, Gly(1-adamantyl)-boroPro] = 270

###

- STUDY_TARGET: recombinant human dipeptidyl peptidase 8 (DPP8) (Homo sapiens (Human))
- Sequence (Q6V1X1 whole entry): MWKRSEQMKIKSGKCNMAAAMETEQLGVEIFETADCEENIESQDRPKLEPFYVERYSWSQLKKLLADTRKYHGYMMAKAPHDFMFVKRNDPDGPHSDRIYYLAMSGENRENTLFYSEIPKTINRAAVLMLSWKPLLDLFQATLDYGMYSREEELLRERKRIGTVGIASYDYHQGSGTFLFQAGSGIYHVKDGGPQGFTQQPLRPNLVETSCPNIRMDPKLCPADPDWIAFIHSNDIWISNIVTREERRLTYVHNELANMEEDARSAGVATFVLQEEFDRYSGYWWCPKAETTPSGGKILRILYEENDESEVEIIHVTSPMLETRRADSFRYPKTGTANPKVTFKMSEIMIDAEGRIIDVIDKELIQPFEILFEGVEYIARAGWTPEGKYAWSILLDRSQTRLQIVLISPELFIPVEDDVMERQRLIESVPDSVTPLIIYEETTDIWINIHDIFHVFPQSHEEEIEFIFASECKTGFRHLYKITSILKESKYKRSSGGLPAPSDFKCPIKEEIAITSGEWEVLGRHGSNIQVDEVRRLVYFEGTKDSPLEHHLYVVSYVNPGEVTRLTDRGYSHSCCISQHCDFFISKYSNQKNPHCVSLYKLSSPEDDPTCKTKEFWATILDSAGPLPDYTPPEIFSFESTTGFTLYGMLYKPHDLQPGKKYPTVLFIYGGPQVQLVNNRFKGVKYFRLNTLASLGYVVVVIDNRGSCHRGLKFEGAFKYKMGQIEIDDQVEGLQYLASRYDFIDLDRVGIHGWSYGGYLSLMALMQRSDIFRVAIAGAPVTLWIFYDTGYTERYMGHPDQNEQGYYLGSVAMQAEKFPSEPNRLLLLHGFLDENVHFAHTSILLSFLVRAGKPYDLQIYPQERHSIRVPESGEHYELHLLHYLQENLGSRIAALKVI
- ASSAY_COMMENT: In vitro inhibition assay, dipeptidyl peptidase 8
PARAMETER_MEASURED: IC50 (nM)

* CC1(C)CCCN[C@@H]1C(=O)N1CCC[C@H]1B(O)O (relative stereo) [compound 5349] | 250

###

- ASSAY_COMMENT: Oral PK profile in mice, plasma drug concentrations
- Type: in vivo, BALB/c mice
- CONDITION_CONTEXT: male, BALB/c, mouse, plasma, oral, 3 mg/kg, 3 mg/kg oral gavage, 240 min post-dose, individual mice #1-#3
Below, each of the compounds is paired with its reported concentration at 240 min value.
PARAMETER_MEASURED: concentration at 240 min (nM)

- N[C@H](C(=O)N1CCC[C@H]1B(O)O)C12CC3CC(CC(C3)C1)C2 (relative stereo): 20
- CC1([C@H](N)C(=O)N2CCC[C@H]2B(O)O)CCCCC1 (relative stereo) [ARI-4175CH]: 10
